# pEC50 listing for each entry below
target system: T1, WT Human HTT Exon 1 25Q (GST) (human)
T1 construct: recombinant His- and GST-tagged fusion; also called Wild type Huntingtin (HTT) exon 1
T1 sequence (chain, as listed by the source limits assumed, change not shown): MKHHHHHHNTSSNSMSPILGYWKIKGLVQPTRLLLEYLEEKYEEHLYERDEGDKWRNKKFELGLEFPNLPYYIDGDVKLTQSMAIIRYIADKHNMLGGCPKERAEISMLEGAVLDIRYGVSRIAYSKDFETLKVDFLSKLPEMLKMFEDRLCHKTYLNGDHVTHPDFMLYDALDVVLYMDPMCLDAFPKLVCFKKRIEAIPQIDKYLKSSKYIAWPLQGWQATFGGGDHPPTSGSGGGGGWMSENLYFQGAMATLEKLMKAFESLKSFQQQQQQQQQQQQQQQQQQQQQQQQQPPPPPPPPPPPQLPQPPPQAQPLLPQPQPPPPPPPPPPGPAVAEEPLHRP
measurement notes: HTT sandwich ELISA, biological repeat 2
In textbook form, pEC50 equals minus log to base ten of the concentration in mol/L.

Example cases with answers are listed next.
{"binder": "ATL_0005059/NI-302.8F1 (antibody, V domains shown, also called ATL_5059; CA_0000274) VH: EVQLVESGGGLVKPGGSLTISCAASGFTFSNAWMNWVRQAPGKGLEWVGHIRTQAEGGTSDYAAPVKGRFTISRDDSKNTLYLQMNSLKTEDTAVYYCIPPPYYYYYGLDVWGQGTTVTVSS VL: QSALTQPASVSGSPGQSITISCTGASSDVGTYDLVSWYQQHPGKAPKLIIYEVNKRPSGVSYRFSASKSANTASLTISGLQAEDEAEYYCCSYAGYSTVFGGGTKLTVL", "pEC50": 7.71}
{"binder": "ATL_0005901 (antibody, V domains shown, human IgG1; also called ATL_5901; ATL5901) VH: EVQLVESGGGLVKPGGSLRLSCAASGFTFNKAWMSWVRQAPGKGLEWVGRIKSGIDAGTTDYAAPVKGRFTISRDDSKATLYLQMNSLKTEDTAVYYCIPPPYYYYYGLDVWGQGTTVTVSS VL: QSALTQPASVSGSPGQSITISCTGTSSDVGGYKLVSWYQQHPGRAPKLMIYEVSKRPSGVSSRFSGSKSGSTASLTISGLQAEDEADYYCSSYAGSSVVFGGGTKLTVL", "pEC50": 8.34}
{"binder": "ATL_0005895 (antibody, V domains shown, human IgG1; also called ATL_5895; ATL5895) VH: EVQLVESGGGLVKPGGSLRLSCAASGFTFNKAWMSWVRQAPGKGLEWVGRIKSGIDAGTTDYAAPVKGRFTISRDDSKNTLYLQMNSLKTEDTAVYYCIPPPYYYYYGLDVWGQGTTVTVSS VL: QSALTQPRSVSGSPGQSVTISCTGTSSDVGSYNLVSWYQQHPGKAPKLMIYEVNKRPSGVPDRFSGSKSGATASLTISGLQAEDEADYYCGSYAGTANVFGTGTKVTVL", "pEC50": 8.41}

Here is another binder to look at.
Prompt line: Param item = ATL_0005567 (antibody, V domains shown, human IgG1; also called ATL_5567; ATL5567) VH: EVQLVESGGGLVKPGGSLRLSCAASGFTFNKAWMNWVRQAPGKGLEWVGRIKSGIDGGTTDYAAPVQGRFTISRDDSKNTVYLQMNSLNTEDTAVYYCIPPPYYYYYGLDVWGQGTTVTVSS VL: QSALTQPASVSGSPGQSITISCTGTSSDIGSYNLVSWYQQHPGNAPKPLIYEGSKRPSGVSARFSGSKSGNTASLTISGLQPEDEADYYCSSYAGFSTLVFGGGTKVTVL ; retrieve measured pEC50.
Response line: 8.02
